IC50 values for the compounds below.
# systemName: Substance-P receptor (Homo sapiens, UniProt P25103)
# Sequence (P25103 whole entry): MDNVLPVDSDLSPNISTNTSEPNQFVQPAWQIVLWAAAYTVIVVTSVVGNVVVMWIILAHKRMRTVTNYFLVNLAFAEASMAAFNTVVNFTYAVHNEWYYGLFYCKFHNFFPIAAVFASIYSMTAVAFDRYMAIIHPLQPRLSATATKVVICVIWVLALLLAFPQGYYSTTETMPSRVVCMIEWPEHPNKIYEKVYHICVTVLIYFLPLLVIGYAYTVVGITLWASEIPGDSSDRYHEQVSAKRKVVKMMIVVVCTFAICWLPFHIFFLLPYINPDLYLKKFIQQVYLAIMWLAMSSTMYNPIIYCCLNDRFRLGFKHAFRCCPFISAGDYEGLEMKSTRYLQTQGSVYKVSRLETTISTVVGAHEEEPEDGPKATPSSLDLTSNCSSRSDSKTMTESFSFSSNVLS
# assayOverview: Tested for binding affinity by measuring displacement of [125I]SP from human NK-1 receptor in CHO Cells
endpointName: IC50

{"columns": ["structureSmilesString", "reportedResult"],
 "data": [
  ["FC(F)(F)c1cc(CO[C@H]2C3CCN(CC3)[C@@H]2C(c2ccccc2)c2ccccc2)cc(C(F)(F)F)c1", "0.7 nM"],
  ["FC(F)(F)c1cc(CO[C@H]2C3CCN(CC3)[C@H]2C(c2ccccc2)c2ccccc2)cc(C(F)(F)F)c1", "1.3 nM"],
  ["FC(F)(F)c1cc(CO[C@@H]2C3CCN(CC3)[C@H]2C(c2ccccc2)c2ccccc2)cc(C(F)(F)F)c1", "270 nM"],
  ["FC(F)(F)c1cc(CO[C@@H]2C3CCN(CC3)[C@@H]2C(c2ccccc2)c2ccccc2)cc(C(F)(F)F)c1", "570 nM"]
]}

// data source = ChEMBL document CHEMBL1150016
